test: Sensory evaluation of sweetness potency relative to sugar; conditions: sensory evaluation
recorded endpoint: sweetness potency value

Ask: I would be grateful if you could share the reported sweetness potency value for COC[C@H](NC(=O)C(NC(=O)[C@@H](N)CC(=O)O)c1ccco1)c1ccccc1 (mixture of isomers) [Example 5] .
Result: 1200 times that of sugar

Ask: How about this molecule: "COC[C@H](NC(=O)[C@@H](C)NC(=O)[C@@H](N)CC(=O)O)c1ccccc1"
Result: 300 times that of sugar

Ask: One more molecule: "COC[C@@H](NC(=O)[C@H](NC(=O)[C@@H](N)CC(=O)O)C(C)C)C(C)C"
Result: 40 times that of sugar

Ask: How about "CC[C@@H](C)[C@@H](NC(=O)[C@@H](N)CC(=O)O)C(=O)N[C@@H](COC)c1ccccc1" ?
Result: 500 times that of sugar

Ask: Entry to check: "CC[C@H](NC(=O)C(CC)(CC)NC(=O)[C@@H](N)CC(=O)O)c1ccccc1"
Result: 1000 times that of sugar

Ask: Same question, CC[C@H](NC(=O)C1(NC(=O)[C@@H](N)CC(=O)O)CCCC1)c1ccccc1 [Example 6] this time
Result: 1000 times that of sugar

----------
assay: Sensory evaluation of sweetness potency relative to sugar; conditions: sensory evaluation
recorded endpoint: sweetness potency value

Ask: Which value of sweetness potency value has been reported for CC[C@H](NC(=O)C(C)(CC)NC(=O)[C@@H](N)CC(=O)O)c1ccccc1 (mixture of isomers) [Example 10] in the records?
Result: 100 times that of sugar

----------
Assign sweetness potency value to each entry below.
experiment: Sensory evaluation of sweetness potency relative to sugar; conditions: sensory evaluation

Ask: Quick one: sweetness potency value for "CC[C@H](NC(=O)[C@H](NC(=O)[C@@H](N)CC(=O)O)[C@H](C)O)c1ccccc1" ?
Result: 1300 times that of sugar

Ask: Item: CC[C@H](NC(=O)C1(NC(=O)[C@@H](N)CC(=O)O)CCCCC1)c1ccccc1 [Example 7]
Result: 1000 times that of sugar

Ask: Do the same for CC[C@H](NC(=O)C(NC(=O)[C@@H](N)CC(=O)O)c1ccco1)c1ccccc1 (mixture of isomers) please
Result: 1200 times that of sugar

----------
test: Sensory evaluation of sweetness potency relative to sugar; settings: sensory evaluation
Task for the reader: assign each of the following molecules its reported sweetness potency value.

Ask: Could you share which sweetness potency value value was measured for "CCOC[C@H](NC(=O)[C@H](NC(=O)[C@@H](N)CC(=O)O)C(C)C)c1ccccc1" ?
Result: 500 times that of sugar

Ask: Okay, and "COC[C@H](NC(=O)C1(NC(=O)[C@@H](N)CC(=O)O)CCCCC1)c1ccccc1" ?
Result: 250 times that of sugar

Ask: Please do the same for "COC[C@H](NC(=O)[C@H](NC(=O)[C@@H](N)CC(=O)O)C(C)C)C(C)C" as well.
Result: 30 times that of sugar

Ask: Then this molecule: "COC[C@H](NC(=O)[C@H](NC(=O)[C@@H](N)CC(=O)O)[C@H](C)O)c1ccccc1"
Result: 500 times that of sugar

Ask: And for "CC[C@H](NC(=O)[C@H](NC(=O)[C@@H](N)CC(=O)O)[C@H](C)CC)c1ccccc1" ?
Result: 500 times that of sugar

Ask: And what about the molecule COC[C@H](NC(=O)[C@H](NC(=O)[C@@H](N)CC(=O)O)C(C)C)c1ccccc1 [Example 11] ?
Result: 1300 times that of sugar

Ask: Another molecule: CC[C@@H](NC(=O)[C@@H](N)CC(=O)O)C(=O)N[C@@H](COC)c1ccccc1 [Example 16]
Result: 1200 times that of sugar

Ask: What about this molecule? "COC[C@H](NC(=O)[C@H](NC(=O)[C@@H](N)CC(=O)O)c1ccccc1)c1ccccc1"
Result: 500 times that of sugar

From: patent US5723165A
